- Test system: SYO-1 complex spheroid growth, percent test/control
- Assay Comment: Anticancer human tumor SYO-1 cell line growth inhibition [Asc];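 also: compound exposure lasted 7 days after spheroids grew 3 days; 100% = DMSO vehicle control viability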
- Settings: second compound 0.1 µM; first compound 0.00316 µM; active compounds read low
- Source text: Multicellular complex tumor spheroid response to apoptosis pathway targeting inhibitors Alrizomadlin, Pelcitoclax, and Dasminapant in combination with a variety of drugs and investigational agents in selected tumor cell lines […] Compounds. […] If the clinical Cmax for an agent had not been determined, the highest concentration tested was 10 microM. […]
Entries and their viability, T/C values follow.
Measure Name: viability, T/C (%)

Compound	Measured On	Recorded Measurement
O=C(c1ccc(F)c(F)c1Nc1ccc(I)cc1F)N1CC(O)([C@@H]2CCCCN2)C1 + CNC(C)C(=O)NC1CN(S(=O)(=O)c2cccc(S(=O)(=O)N3CCC4CCC(C(=O)NC(c5ccccc5)c5ccccc5)N4C(=O)C(NC(=O)C(C)NC)C3)c2)CCC2CCC(C(=O)NC(c3ccccc3)c3ccccc3)N2C1=O	SYO-1 complex spheroid growth, percent test/control	99.5
CCN1CCN(Cc2ccc(Nc3ncc(F)c(-c4cc(F)c5nc(C)n(C(C)C)c5c4)n3)nc2)CC1 + CNC(C)C(=O)NC1CN(S(=O)(=O)c2cccc(S(=O)(=O)N3CCC4CCC(C(=O)NC(c5ccccc5)c5ccccc5)N4C(=O)C(NC(=O)C(C)NC)C3)c2)CCC2CCC(C(=O)NC(c3ccccc3)c3ccccc3)N2C1=O	SYO-1 complex spheroid growth, percent test/control	102
O=C(c1ccc(F)c(F)c1Nc1ccc(I)cc1F)N1CC(O)([C@@H]2CCCCN2)C1 + Cc1c(S(C)(=O)=O)c(-c2cc(F)cc(N3CCN(c4ccc(NS(=O)(=O)c5ccc(NC(CCN6CCC(C(=O)OCCCP(=O)(O)O)CC6)CSc6ccccc6)c(S(=O)(=O)C(F)(F)F)c5)cc4)CC3)c2)c(-c2ccc(Cl)cc2)n1C(C)C	SYO-1 complex spheroid growth, percent test/control	95.3
NC1CCC(NC2CC2c2ccccc2)CC1 (configuration not stated) + Cc1c(S(C)(=O)=O)c(-c2cc(F)cc(N3CCN(c4ccc(NS(=O)(=O)c5ccc(NC(CCN6CCC(C(=O)OCCCP(=O)(O)O)CC6)CSc6ccccc6)c(S(=O)(=O)C(F)(F)F)c5)cc4)CC3)c2)c(-c2ccc(Cl)cc2)n1C(C)C	SYO-1 complex spheroid growth, percent test/control	86.3
COc1c(OCCCN2CCOCC2)ccc2c3n(c(=NC(=O)c4cnc(N)nc4)nc12)CCN3 + Cc1c(S(C)(=O)=O)c(-c2cc(F)cc(N3CCN(c4ccc(NS(=O)(=O)c5ccc(NC(CCN6CCC(C(=O)OCCCP(=O)(O)O)CC6)CSc6ccccc6)c(S(=O)(=O)C(F)(F)F)c5)cc4)CC3)c2)c(-c2ccc(Cl)cc2)n1C(C)C	SYO-1 complex spheroid growth, percent test/control	99.2
Cn1ncnc1[C@H]1c2n[nH]c(=O)c3cc(F)cc(c23)N[C@@H]1c1ccc(F)cc1 + CNC(C)C(=O)NC1CN(S(=O)(=O)c2cccc(S(=O)(=O)N3CCC4CCC(C(=O)NC(c5ccccc5)c5ccccc5)N4C(=O)C(NC(=O)C(C)NC)C3)c2)CCC2CCC(C(=O)NC(c3ccccc3)c3ccccc3)N2C1=O	SYO-1 complex spheroid growth, percent test/control	96.8
CCN1CCN(Cc2ccc(Nc3ncc(F)c(-c4cc(F)c5nc(C)n(C(C)C)c5c4)n3)nc2)CC1 + Cc1c(S(C)(=O)=O)c(-c2cc(F)cc(N3CCN(c4ccc(NS(=O)(=O)c5ccc(NC(CCN6CCC(C(=O)OCCCP(=O)(O)O)CC6)CSc6ccccc6)c(S(=O)(=O)C(F)(F)F)c5)cc4)CC3)c2)c(-c2ccc(Cl)cc2)n1C(C)C	SYO-1 complex spheroid growth, percent test/control	99.8

The origin of these recorded values is PubChem BioAssay AID1963432.
